Test system: male rats of SD line
method notes: High cholesterol feed: blood viscosity, serum total cholesterol, triglyceride, GOT
Format: in vivo
experimental conditions: 100 mg/kg/day, p.o., 4 days
metric name: GOT ±S.E.

molecule	metric name	observed
CC(CCC1OCC1CO)C1CCC2C3C(O)CC4CC(O)CCC4(C)C3CC(O)C12C (centres unmarked) [Example 3]	GOT ±S.E.	140 ± 10 IU/ℓ
C[C@H](CC[C@@H](O)[C@@H](C)CO)[C@H]1CC[C@H]2[C@@H]3[C@H](O)C[C@@H]4C[C@H](O)CC[C@]4(C)[C@H]3C[C@H](O)[C@]12C [Example 11]	GOT ±S.E.	151 ± 15 IU/ℓ
C[C@H](CC[C@@H](O)C(CO)CO)[C@H]1CC[C@H]2[C@@H]3[C@H](O)C[C@@H]4C[C@H](O)CC[C@]4(C)[C@H]3C[C@H](O)[C@]12C [Illustrative Example 1]	GOT ±S.E.	128 ± 10 IU/ℓ
C[C@H](CCCC(CO)CO)[C@H]1CC[C@H]2[C@@H]3[C@H](O)C[C@@H]4C[C@H](O)CC[C@]4(C)[C@H]3C[C@H](O)[C@]12C [Example 6]	GOT ±S.E.	143 ± 8 IU/ℓ
C[C@H](CCCC(CO)CO)[C@H]1CC[C@H]2[C@@H]3[C@H](O)C[C@H]4C[C@H](O)CC[C@]4(C)[C@H]3C[C@H](O)[C@]12C [Example 7]	GOT ±S.E.	138 ± 18 IU/ℓ
C[C@H](CC[C@@H](O)C1COC1)[C@H]1CC[C@H]2[C@@H]3[C@H](O)C[C@@H]4C[C@H](O)CC[C@]4(C)[C@H]3C[C@H](O)[C@]12C [Example 5]	GOT ±S.E.	141 ± 13 IU/ℓ
CC(C)C(O)CC[C@@H](C)[C@H]1CC[C@H]2[C@@H]3[C@H](O)C[C@@H]4C[C@H](O)CC[C@]4(C)[C@H]3C[C@H](O)[C@]12C (stereo partly drawn) [Illustrative Example 5, 3α,7α,12α,24-tetrahydroxy-5β-cholestane]	GOT ±S.E.	131 ± 21 IU/ℓ
C[C@H](CC[C@H](O)C(CO)CO)[C@H]1CC[C@H]2[C@@H]3[C@H](O)C[C@@H]4C[C@H](O)CC[C@]4(C)[C@H]3C[C@H](O)[C@]12C [Example 8]	GOT ±S.E.	140 ± 13 IU/ℓ
C[C@H](CC[C@@H](O)CCO)[C@H]1CC[C@H]2[C@@H]3[C@H](O)C[C@@H]4C[C@H](O)CC[C@]4(C)[C@H]3C[C@H](O)[C@]12C [Illustrative Example 2]	GOT ±S.E.	141 ± 6 IU/ℓ
C[C@H](CC[C@H](O)CCO)[C@H]1CC[C@H]2[C@@H]3[C@H](O)C[C@@H]4C[C@H](O)CC[C@]4(C)[C@H]3C[C@H](O)[C@]12C [Illustrative Example 3]	GOT ±S.E.	158 ± 12 IU/ℓ
C[C@H](CC[C@H]1OC[C@H]1CO)[C@H]1CC[C@H]2[C@@H]3[C@H](O)C[C@@H]4C[C@H](O)CC[C@]4(C)[C@H]3C[C@H](O)[C@]12C [Example 4]	GOT ±S.E.	138 ± 9 IU/ℓ

Where these numbers come from: patent EP0489933A1
